- Test system: CCRF-CEM leukemia
- Test Name: NCI tumour cell line growth inhibition, 48 h

Smiles	TGI
CNc1nc2ccccc2n2c(-c3ccc(O)c(O)c3)cnc12	1.77 µM
C=CCn1c(SCC(=O)Nc2ccc(C(=O)/C=C/c3ccccc3)cc2)nnc1-c1c[nH]c2ccccc12	> 100 µM
COc1ccc(-c2nc3cc(C)ccc3n2CC(=O)N=Nc2c(O)[nH]c3ccc(Cl)cc23)cc1	60.2 µM
O=C1Nc2ccc(F)cc2/C1=C/c1cccc(OCc2ccccn2)c1	71.8 µM

---

- System: UACC-62 melanoma
- Test Name: NCI tumour cell line growth inhibition, 48 h
Experimental Readout: TGI

Smiles	Assay Result
COc1ccc(-c2nc3cc(C)ccc3n2CC(=O)N=Nc2c(O)[nH]c3ccc(Cl)cc23)cc1	3.4 µM
O=C1Nc2ccc(F)cc2/C1=C/c1cccc(OCc2ccccn2)c1	27.7 µM
C=CCn1c(SCC(=O)Nc2ccc(C(=O)/C=C/c3ccccc3)cc2)nnc1-c1c[nH]c2ccccc12	> 100 µM
COc1ccc(-c2nc3cc(C)ccc3n2CC(=O)N=Nc2c(O)[nH]c3ccccc23)cc1	6.96 µM
COc1ccc(/C=C/c2nc3ccccc3c(=O)n2CC(=O)Nc2ccccc2)cc1	> 100 µM
